So I've got a bunch of binders here, and I need their ELISA values.
- Target of assay: T1, proprotein convertase subtilisin/kexin type 9 (PCSK9) (human, UniProt Q8NBP7 31-692)
- T1 construct: His-tagged full-length PCSK9 in TR-FRET and SPR, biotinylated in phage ELISA; secreted protein is autoprocessed (prodomain plus catalytic/CRD chain starting at S153); also called rec.PCSK9; His-PCSK9
- T1 sequence (Q8NBP7 other isoform, or with tags, fused parts or gaps limits assumed): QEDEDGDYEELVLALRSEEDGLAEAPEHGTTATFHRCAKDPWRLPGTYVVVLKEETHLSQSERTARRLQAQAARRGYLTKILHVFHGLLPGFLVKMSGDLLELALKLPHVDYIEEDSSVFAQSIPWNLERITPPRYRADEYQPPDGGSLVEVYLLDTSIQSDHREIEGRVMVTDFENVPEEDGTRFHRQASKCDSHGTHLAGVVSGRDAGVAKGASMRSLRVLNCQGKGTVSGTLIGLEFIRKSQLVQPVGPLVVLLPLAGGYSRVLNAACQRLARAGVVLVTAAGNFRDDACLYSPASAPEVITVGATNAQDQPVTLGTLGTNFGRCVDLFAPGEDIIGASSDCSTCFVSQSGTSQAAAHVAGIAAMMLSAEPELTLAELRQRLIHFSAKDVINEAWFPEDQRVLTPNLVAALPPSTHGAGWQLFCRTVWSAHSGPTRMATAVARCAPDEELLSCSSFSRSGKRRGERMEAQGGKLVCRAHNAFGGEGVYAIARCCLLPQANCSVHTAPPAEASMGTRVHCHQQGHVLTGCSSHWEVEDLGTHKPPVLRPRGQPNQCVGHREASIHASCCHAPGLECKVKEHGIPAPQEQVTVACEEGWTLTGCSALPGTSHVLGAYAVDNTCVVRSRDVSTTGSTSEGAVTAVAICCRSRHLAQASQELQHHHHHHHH
- Measurement description: phage spot ELISA
Numbers only.

SGHASKGMVLSG [SEQ ID NO 381]: 2.49
SGAGKLDLSG [SEQ ID NO 377]: 2.87
SGCWTYLRGGCSVT [SEQ ID NO 373]: 0.487
SGVCSDHYIGGKEVRC [SEQ ID NO 378]: 1.12
SGRNGSGYINRGIEIW [SEQ ID NO 380]: 0.447

Report ELISA for each item below.
1. SGGSIPWNLERITPPR [SEQ ID NO 382]
2. SGLAPTVSDS [SEQ ID NO 375]
3. SGACLNHFVSGNMIRC [SEQ ID NO 371]

A:
1: 1.41; 2: 0.119; 3: 0.607

Cited source for all entries: patent US20200283478A1
